B1: library; a variant is named by its letters at N, in order (parent)
chain: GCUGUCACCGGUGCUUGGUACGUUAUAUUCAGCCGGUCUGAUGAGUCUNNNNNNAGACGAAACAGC

Variants of: B1
Assay Notes: normalized RNA/DNA level without ligand (relative to sTRSVctl = 100) (log10 (% of sTRSVctl)); HEK293T overexpressing SLC46A1; higher = less ribozyme self-cleavage, higher mRNA level
Assay Conditions: without (6R,S)-folinic acid; ligand present: no
Would you please tag the item true (1) when its normalized RNA/DNA level without ligand (log10) is 2 or above, and false (0) when it is below?

Task: Please check the record `GGGGCU` and state if its normalized RNA/DNA level without ligand (log10) is at or above 2.
Result: true (1)

Task: Likewise for `ACAGCG` ?
Result: false (0)

Task: Likewise for `CUCGCA` ?
Result: true (1)

Task: Likewise for `AGAGAG` ?
Result: false (0)

Task: Likewise for `GGGUCA` ?
Result: true (1)

Task: Likewise for `GCAGGU` ?
Result: false (0)

Task: Likewise for `UGUGAG` ?
Result: false (0)

Task: Likewise for `GUUGAG` ?
Result: false (0)

Task: Likewise for `UGGCUC` ?
Result: true (1)

Task: Likewise for `CCUAGU` ?
Result: true (1)

Task: Likewise for `UAGUUG` ?
Result: false (0)

Task: Likewise for `UCCACG` ?
Result: false (0)

Task: Likewise for `UGCGUG` ?
Result: false (0)

Task: Likewise for `UUGAAA` ?
Result: false (0)

Task: Likewise for `UCCCUG` ?
Result: false (0)

Task: Likewise for `ACUGCG` ?
Result: false (0)

Task: Likewise for `CUGCCC` ?
Result: true (1)

Task: Likewise for `UAUGUG` ?
Result: false (0)

Task: Likewise for `CUCCCG` ?
Result: true (1)

Task: Likewise for `UAGGCG` ?
Result: false (0)

Task: Likewise for `AUCACC` ?
Result: true (1)

Task: Likewise for `UAUGAU` ?
Result: false (0)

Task: Likewise for `CUAGUC` ?
Result: true (1)

Task: Likewise for `CCGGAG` ?
Result: false (0)

Task: Likewise for `AAUCGG` ?
Result: false (0)

Task: Likewise for `UAACGA` ?
Result: false (0)
